HDAC8 (Homo sapiens (Human), UniProt Q9BY41): recorded pIC50 for assorted compounds
Sequence (Q9BY41 whole entry): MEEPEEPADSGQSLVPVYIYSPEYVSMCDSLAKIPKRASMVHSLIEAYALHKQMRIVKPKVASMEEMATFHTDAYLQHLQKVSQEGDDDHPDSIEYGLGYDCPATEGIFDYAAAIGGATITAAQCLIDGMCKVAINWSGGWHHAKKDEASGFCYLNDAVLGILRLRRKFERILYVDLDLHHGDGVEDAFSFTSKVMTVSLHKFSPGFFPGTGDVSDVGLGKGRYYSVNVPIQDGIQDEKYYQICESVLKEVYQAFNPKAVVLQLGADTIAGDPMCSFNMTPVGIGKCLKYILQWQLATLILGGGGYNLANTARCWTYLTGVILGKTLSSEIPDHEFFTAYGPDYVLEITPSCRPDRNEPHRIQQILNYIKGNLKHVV
One number for each entry, as −log10 of the molar value.

Cn1c(OCc2ccc(-c3noc(C(F)(F)F)n3)c(F)c2)nc2ccccc21 [Example 235]; 6.11
O=C1CCC(c2ccccc2)N1c1ccc(-c2noc(C(F)(F)F)n2)cc1 (centres unmarked) [Example 115]; 6.04
O=C(C1CC1c1cncnc1)N(Cc1ccc(-c2noc(C(F)(F)F)n2)cc1)c1cccc(C(F)(F)F)c1 (racemic) [Example 73]; 5.66
O=C1OC[C@@H](c2ccccc2)N1c1cc(F)c(-c2noc(C(F)(F)F)n2)cc1F [Example 16]; 5.22

Record pIC50 for all entries; do not skip any.
1. CN(C(=O)[C@@H]1COCC(=O)N1c1ccc(-c2noc(C(F)(F)F)n2)c(F)c1)C(C)(C)C [Example 196]
2. FC(F)(F)c1nc(-c2ccc(CNC3CCc4[nH]nc(C(F)(F)F)c4C3)cc2)no1 (racemic) [Example 353]

OUTPUT:
1: 5.20; 2: 6.05

Respectfully, I request pIC50 for each entry included below.
1. Fc1cc(COc2cncnc2)ccc1-c1noc(C(F)(F)F)n1 [Example 236]
2. Cc1nc2c(c(=O)[nH]1)CC(NCc1ccc(-c3noc(C(F)(F)F)n3)cc1)CC2 (racemic) [Example 350]

OUTPUT:
1. 5.68
2. 6.60

###

SUBJECT OF TEST: HDAC1 (Homo sapiens (Human), UniProt Q13547)
Sequence (Q13547 whole entry): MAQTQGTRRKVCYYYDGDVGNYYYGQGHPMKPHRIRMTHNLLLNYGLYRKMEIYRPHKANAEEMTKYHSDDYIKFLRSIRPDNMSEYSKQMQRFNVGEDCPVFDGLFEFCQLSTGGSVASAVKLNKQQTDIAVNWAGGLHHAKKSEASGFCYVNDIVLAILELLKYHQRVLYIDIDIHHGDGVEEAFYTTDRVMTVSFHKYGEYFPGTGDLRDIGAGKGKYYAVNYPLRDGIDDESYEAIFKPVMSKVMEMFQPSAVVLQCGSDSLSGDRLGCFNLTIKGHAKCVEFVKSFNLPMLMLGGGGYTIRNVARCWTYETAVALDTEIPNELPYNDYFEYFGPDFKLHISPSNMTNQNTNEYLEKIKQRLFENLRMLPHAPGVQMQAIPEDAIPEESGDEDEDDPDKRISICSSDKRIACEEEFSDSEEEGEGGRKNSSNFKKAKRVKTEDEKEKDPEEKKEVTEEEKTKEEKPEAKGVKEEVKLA
pIC50: −log10 of the molar value.
Label TRUE when pIC50 >= 6; otherwise FALSE.

O=C1CCc2ccc(Br)cc2N1Cc1ccc(-c2noc(C(F)(F)F)n2)cc1; TRUE
FC(F)(F)c1nc(-c2ccc(COc3ncccn3)cc2)no1; FALSE

INPUT: Given the entry `O=C1CCc2ccc(F)cc2N1Cc1ccc(-c2noc(C(F)(F)F)n2)cn1` , answer whether its pIC50 meets or surpasses 6.
OUTPUT: TRUE

INPUT: Confirm if pIC50 reported for the molecule `O=C(NC1CC1)c1ccccc1NCc1ccc(-c2noc(C(F)(F)F)n2)cn1` is 6 or above.
OUTPUT: TRUE

INPUT: Does the reported pIC50 for `Nc1cccnc1COCc1ccc(-c2noc(C(F)(F)F)n2)c(F)c1` fall at or above the 6 mark?
OUTPUT: FALSE

###

Form: system (HDAC8 (Homo sapiens (Human), UniProt Q9BY41)), quantity (IC50), values below.
Dear colleague, please send the value followed by its unit.

Example results:
O=C([C@@H]1CCC(=O)N1c1cc(F)c(-c2noc(C(F)(F)F)n2)cc1F)N1CCCC1; 26000 nM
O=C(c1cncnc1)N(Cc1ccc(-c2noc(C(F)(F)F)n2)cc1)c1cccc(C(F)(F)F)c1; 2800 nM
FC(F)(F)c1nc(-c2ccc(CNC3CCN(c4ncccn4)C3)cc2)no1 (racemic); 680 nM
O=C(COc1cc(-c2noc(C(F)(F)F)n2)ccn1)N1CCOCC1; 1100 nM
O=C(CCCn1cncn1)N(Cc1ccc(-c2noc(C(F)(F)F)n2)cc1)c1cccc(C(F)(F)F)c1; 2000 nM
FC(F)(F)c1nc(-c2ccc(CNc3ccc4nccn4c3)nc2)no1; 960 nM
O=C1C(C2CCOCC2)NC[C@@H](c2cc(F)cc(F)c2)N1c1ccc(-c2noc(C(F)(F)F)n2)cn1 (stereo partly drawn); 16000 nM
O=C(OCCOCCCl)[C@@H]1CCC(=O)N1c1ccc(-c2noc(C(F)(F)F)n2)c(F)c1; 110 nM
Fc1cc(COc2ccccc2)ccc1-c1noc(C(F)(F)F)n1; 45000 nM
O=C1CCC(c2ccccc2)N1c1cc(F)c(-c2noc(C(F)(F)F)n2)cc1F (stereo not drawn); 6000 nM

Look up IC50 for the entries below, preserving their order.
1. CN(C)CC(=O)N(Cc1ccc(-c2noc(C(F)(F)F)n2)cc1)c1cccc(C(F)(F)F)c1
2. CC(C)(C)OC(=O)[C@@H]1CCC(=O)N1c1ccc(-c2noc(C(F)(F)F)n2)c(F)c1
3. FC(F)(F)c1nc(-c2ccnc(OCCc3cccc4cn[nH]c34)c2)no1
4. O=C1CCC(c2ccccc2Cl)N1c1ccc(-c2noc(C(F)(F)F)n2)c(F)c1 (racemic)
5. NC(=O)c1ccnc(NCc2ccc(-c3noc(C(F)(F)F)n3)cn2)c1
6. O=C(C1COCCO1)N(Cc1ccc(-c2noc(C(F)(F)F)n2)cc1)c1cccc(C(F)(F)F)c1 (racemic)
7. CC(C)(C(=O)N(Cc1ccc(-c2noc(C(F)(F)F)n2)cn1)c1cccc(F)c1)n1cccn1
8. O=C(N1CCOCC1)N(Cc1ccc(-c2noc(C(F)(F)F)n2)cc1)c1cccc(C(F)(F)F)c1

OUTPUT:
3500 nM
19000 nM
480 nM
10000 nM
750 nM
2400 nM
7400 nM
2300 nM

Your task in this section: give IC50 for each listed record.
1. O=C1NCCCCC1NCc1ccc(-c2noc(C(F)(F)F)n2)cn1 (racemic)
2. Fc1c(-c2noc(C(F)(F)F)n2)ccnc1OCc1nc(C2CC2)no1
3. CC(C)(C)OC(=O)[C@@H]1CCC(=O)N1c1ccc(-c2noc(C(F)(F)F)n2)c(F)c1F

OUTPUT:
1: 3300 nM; 2: 1500 nM; 3: 7400 nM

Please state IC50 for every compound in the list that follows.
1. FC(F)(F)c1nc(-c2ccnc(OCc3cnn4c3OCCC4)c2)no1
2. CS(=O)(=O)N1CC(C(=O)N(Cc2ccc(-c3noc(C(F)(F)F)n3)cn2)c2cccc(F)c2)C1
3. COc1ccc(OCc2ccc(-c3noc(C(F)(F)F)n3)c(F)c2)nc1
4. FC(F)(F)c1nc(-c2ccnc(OC3CCCc4ccc(Cl)nc43)c2)no1 (racemic)

OUTPUT:
4400 nM
1300 nM
1600 nM
850 nM

From: patent US11066396B2
